system_name: Calcium and integrin-binding protein 1 (Homo sapiens) (UniProt Q99828)
Sequence (Q99828 whole entry, looked up): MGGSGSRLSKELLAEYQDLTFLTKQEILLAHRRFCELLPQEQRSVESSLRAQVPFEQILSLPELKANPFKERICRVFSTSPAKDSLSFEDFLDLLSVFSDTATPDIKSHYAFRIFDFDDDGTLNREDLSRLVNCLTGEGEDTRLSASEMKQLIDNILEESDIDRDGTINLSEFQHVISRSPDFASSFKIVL
test_protocol: Primary qHTS for Identification of Calcium Integrin Binding Protein 1 (CIB1) Competitor (AID 1508620);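 also: GST tagged CIB1 binding a fluorescein labelled alphaIIb integrin peptide tracer; top concentration of the series differs between compounds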
applied_conditions: CIB1-GST / FITC-alphaIIb peptide fluorescence polarization; series mostly up to 114 µM
Source text: Assay Provider: Ulhas P. Naik, PhD Sidney Kimmel Medical College Thomas Jefferson University, Philadelphia, PA Primary function of platelets is to maintain hemostasis. At the site of vascular injury, platelets adhere to adhesive proteins such as collagen and von Willebrand factor. […] PROTOCOL TABLES SEQUENCE No. (1, 2, 3, etc.); […] […] 7; ViewLux Fluorescent Polization Read: excitation = 480(20) / emission = 540(25) S and P; FITC Dichroic mirror.
Records with an inconclusive call do not appear. Activity calls are given as the source filed them. Calls follow the shape of the dose curve; as a rule, active = well fitted inhibition curve with a large enough effect; inconclusive = small, poorly fitted or top-dose-only effect; inactive = flat fitted curve, though single readings scatter.

compound	outcome
Cc1cc(NC(=O)Nc2nnc(C3CCCCC3)s2)ccc1F	inactive
Cc1c(C(=O)OCc2ccco2)[nH]c2c1C(=O)CC(c1ccco1)C2 (stereo not given)	inactive
Cc1ccc(S(=O)(=O)Nc2cnccc2C(=O)Nc2nc(-c3ccc(Cl)c(Cl)c3)cs2)cc1	inactive
O=[S+]([O-])(Nc1ccccc1)c1ccc(NCc2cccc(C(F)(F)F)c2F)cc1	inactive
CCCn1c(C)nc2c(NCCN3CCCC3)nc(C)nc21	inactive
COc1cccc(C2c3c(ncn(-c4cccc(Br)c4)c3=N)Oc3ccc4ccccc4c32)c1 (stereo not given)	inactive
CC(=O)Nc1sc2c(c1-c1nc3ccccc3s1)CN(C1COC1)C2	inactive
Cc1cc(C=CC#N)cc(C)c1Nc1nc(Nc2ccc3scnc3c2)c2[nH]cnc2n1	inactive
CCc1ccc(NC(=O)c2cnn3c(C)cc(C)nc23)cc1	inactive
O=S(=O)(Nc1ccc2ccccc2c1)c1ccc(NCc2cccc(Cl)c2O)cc1	inactive

The reported measurements were obtained from PubChem BioAssay (NCATS).
